// values below are reported Ratio pH 6:7.4
Target: T1, human PD-L1-Fc protein (human, UniProt Q9NZQ7 19-239)
T1 construct: Bought from R&D Systems; also called immobilised PD-L1-Fc; not shown: Fc part of the bought fusion protein, not described
T1 sequence (Q9NZQ7 19-239 limits assumed): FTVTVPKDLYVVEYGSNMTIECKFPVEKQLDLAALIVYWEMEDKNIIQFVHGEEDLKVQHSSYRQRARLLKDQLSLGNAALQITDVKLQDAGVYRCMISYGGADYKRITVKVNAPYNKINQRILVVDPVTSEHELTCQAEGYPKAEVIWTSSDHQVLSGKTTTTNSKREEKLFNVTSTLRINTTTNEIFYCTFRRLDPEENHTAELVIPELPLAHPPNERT
Experiment: ELISA, Fab on coated human PD-L1-Fc; ratio from extrapolating an OD of 0.3 at pH 6 versus pH 7.4
QUANTITY_MEASURED: Ratio pH 6:7.4

[
  {
    "BINDER": "Fab 8G08 (Fab, V domains shown, Purified Fab prepared from IgG with the Pierce kit; also called 8G08 Fab) VH: QVQLVQSGGGVVQPGRSLRLSCAASGFTFSSYGMYWVRQAPGKGLEWVAVISYDGSNKYYADSVKGRFTISRDNSKNTLNLQMNSLRAEDTAVYYCAKGALTHWGVVIGDGMDVWGQGTTVTVSS VL: NFMLTQPHSVSESPGKTVTISCISNDVPASGHYHRWYQQRPGSSPTTVIYEDDQRPSGVPDRFSGSIDSSSNSASLTISGLKTEDEADYYCQSFDSTNPWVFGGGTKLTVL",
    "QUANTITY_MEASURED": "Ratio pH 6:7.4",
    "RECORDED_MEASUREMENT": 53
  },
  {
    "BINDER": "Fab 8D06 (Fab, V domains shown, Purified Fab prepared from IgG with the Pierce kit; also called 8D06 Fab) VH: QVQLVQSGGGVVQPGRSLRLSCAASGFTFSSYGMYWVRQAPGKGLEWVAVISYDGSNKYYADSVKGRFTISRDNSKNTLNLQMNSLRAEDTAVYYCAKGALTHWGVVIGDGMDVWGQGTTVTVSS VL: NFMLTQPHSVSESPGKTVTISCVLSPRTHAGHYYRWYQQRPGSSPTTVIYEDDQRPSGVPDRFSGSIDSSSNSASLTISGLKTEDEADYYCQSFDSTNPWVFGGGTKLTVL",
    "QUANTITY_MEASURED": "Ratio pH 6:7.4",
    "RECORDED_MEASUREMENT": 39
  },
  {
    "BINDER": "Fab 8A04 (Fab, V domains shown, Purified Fab prepared from IgG with the Pierce kit; also called 8A04 Fab) VH: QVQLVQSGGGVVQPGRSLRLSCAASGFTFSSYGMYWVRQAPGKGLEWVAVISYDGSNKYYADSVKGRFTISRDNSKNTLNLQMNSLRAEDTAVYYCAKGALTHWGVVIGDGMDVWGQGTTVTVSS VL: NFMLTQPHSVSESPGKTVTISCMRTGTGNKGHYTRWYQQRPGSSPTTVIYEDDQRPSGVPDRFSGSIDSSSNSASLTISGLKTEDEADYYCQSFDSTNPWVFGGGTKLTVL",
    "QUANTITY_MEASURED": "Ratio pH 6:7.4",
    "RECORDED_MEASUREMENT": 11
  },
  {
    "BINDER": "Fab 8D04 (Fab, V domains shown, Purified Fab prepared from IgG with the Pierce kit; also called 8D04 Fab) VH: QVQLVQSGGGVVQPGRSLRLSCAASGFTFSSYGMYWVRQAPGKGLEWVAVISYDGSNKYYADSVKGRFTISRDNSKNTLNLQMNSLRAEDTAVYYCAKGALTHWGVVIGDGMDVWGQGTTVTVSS VL: NFMLTQPHSVSESPGKTVTISCRGTGSSFHHKYVRWYQQRPGSSPTTVIYEDDQRPSGVPDRFSGSIDSSSNSASLTISGLKTEDEADYYCQSFDSTNPWVFGGGTKLTVL",
    "QUANTITY_MEASURED": "Ratio pH 6:7.4",
    "RECORDED_MEASUREMENT": 9
  },
  {
    "BINDER": "Fab 8B06 (Fab, V domains shown, Purified Fab prepared from IgG with the Pierce kit; also called 8B06 Fab) VH: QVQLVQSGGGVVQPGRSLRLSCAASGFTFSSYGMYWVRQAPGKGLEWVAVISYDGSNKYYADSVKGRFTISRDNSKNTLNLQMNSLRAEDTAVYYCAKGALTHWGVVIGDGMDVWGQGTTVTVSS VL: NFMLTQPHSVSESPGKTVTISCRETELSRRLHYVRWYQQRPGSSPTTVIYEDDQRPSGVPDRFSGSIDSSSNSASLTISGLKTEDEADYYCQSFDSTNPWVFGGGTKLTVL",
    "QUANTITY_MEASURED": "Ratio pH 6:7.4",
    "RECORDED_MEASUREMENT": 38
  }
]
